system: HOP-92 NSCLC; assay: NCI tumour cell line growth inhibition, 48 h
compounds and their reported TGI

Worked cases, TGI given:
Exam item: Provide measured TGI value, entry: COc1ccc2nc(-c3ccccc3)c(=O)[nH]c2c1
Marked response: > 100 µM

Exam item: Annotate the compound Cc1ccc2occ/c(=N\Nc3ccccc3)c2c1 with its measured TGI.
Marked response: 97.4 µM

Others:
Exam item: Given the compound Cn1c(=S)c2[nH]c(SCCCc3ccccc3)nc2n(C)c1=O , write its reported TGI.
Marked response: > 100 µM

Exam item: Give reported TGI value for O=C1OCC2OC(=O)c3cc(O)c(O)c(O)c3-c3c(O)c(O)c(O)c4c3C(=O)OC(C2OC(=O)c2cc(O)c(O)c(O)c2-c2c1cc(O)c(O)c2O)C1OC(=O)C2C4=C(O)C(=O)C23Oc2cc(O)c4c(c2[C@H]13)O[C@H](c1ccc(O)c(O)c1)[C@@H](O)C4 (some centres not stated)
Marked response: > 100 µM

Exam item: Identify measured TGI corresponding to Cc1sc2c(c1C)C(c1ccc(Cl)cc1)=N[C@@H](CC(=O)Nc1ccc(OCCOCCOCCOCCNc3cccc4c3C(=O)N(C3CCC(=O)NC3=O)C4=O)cc1)c1nnc(C)n1-2 (some centres not stated)
Marked response: > 51.8 µM

Exam item: Give a short answer stating reported TGI for Cc1c2ccc3ccccc3c2c[n+]2ccccc12 .
Marked response: 60.8 µM
